# System: HL-60
# ASSAY SUMMARY: Growth inhibition of human HL60 cells measured after 3 days by trypan blue assay
# Assay type: functional
# CONDITION DETAILS: HL-60, 72 h
ATTRIBUTE MEASURED: GI50 (µM)

[1] C=CC(C)(C)c1c(O)cc(OC)c2c1OC13C(C2=O)[C@@H](OC)[C@@H]2C[C@H]1C(C)(C)O[C@@]3(CC=C(C)C)C2=O (some centres undefined)
[2] C=CC(C)(C)c1c(O)cc(O)c2c1O[C@]13C(C2=O)[C@@H](OC)[C@@H]2C[C@H]1C(C)(C)O[C@@]3(CC=C(C)C)C2=O (some centres undefined)
[3] C=CC(C)(C)c1c(O)cc(O)c2c1OC13C(=CC4CC1C(C)(C)OC3(CC=C(C)C)C4=O)C2=O (centres undefined)
[4] C=CC(C)(C)c1c(O)cc(O)c2c1OC13CC4C(C=C1C2=O)C(CC=C(C)C)(OC4(C)C)C3=O (centres undefined)
Order by GI50, ascending. # output: labels, in the requested order 3, 4, 1, 2

###

# Test system: HL-60
# ASSAY SUMMARY: Growth inhibition of human HL60 cells measured after 3 days by trypan blue assay
# Type: functional
# CONDITION DETAILS: HL-60, 72 h
Counter-ions that a name gives are not always drawn.
ATTRIBUTE MEASURED: GI50 (nM)

Below, each entry is followed by its recorded GI50 result.
COMPOUND	GI50, nM
CC(C)=CC[C@@]12OC(C)(C)C3C[C@H](C=C4C(=O)c5c(O)cc6c(c5O[C@]431)C(C)(C)[C@H](C)O6)C2=O	1900
CC(C)=CC[C@@]12OC(C)(C)[C@H]3C[C@H](C=C4C(=O)c5c(O)cc6c(c5O[C@]431)C(C)(C)[C@@H](CO)O6)C2=O	1100
C=CC(C)(C)c1c(OC)cc(O)c2c1OC13CC4C(C=C1C2=O)C(CC=C(C)C)(OC4(C)C)C3=O (stereo not drawn)	1000
CC(C)=CC[C@@]12OC(C)(C)[C@H]3C[C@H](C=C4C(=O)c5c(O)cc6c(c5O[C@]431)C(C)(C)[C@H](CO)O6)C2=O	1100
CC(C)=CCC12OC(C)(C)C3CC4(Oc5c(c(O)cc6c5C(C)(C)[C@@H](C)O6)C(=O)C4=CC31)C2=O (stereo partly drawn)	700
C=CC(C)(C)c1c(O)cc(O)c2c1O[C@]13[C@H](C2=O)[C@@H](OC)[C@@H]2C[C@H]1C(C)(C)O[C@@]3(/C=C/C(C)(C)O)C2=O	8800

[1] C=CC(C)(C)c1c(OC)cc(O)c2c1OC13C(=CC4CC1C(C)(C)OC3(CC=C(C)C)C4=O)C2=O (stereo not drawn)
[2] COc1cccc2c1C(=O)c1c(O)c3c(c(O)c1C2=O)C[C@@](O)(C(=O)CO)C[C@@H]3O[C@H]1C[C@H](N)[C@H](O)[C@H](C)O1 [DOXORUBICIN HYDROCHLORIDE]
Form field 'greater GI50' accepts 1 or 2 ; which applies? The response must carry the label of the picked entry. 1

[P] C=CC(C)(C)c1c(O)cc(O)c2c1O[C@]13CC4[C@H]([C@@H](OC)C1C2=O)[C@@](CC=C(C)C)(OC4(C)C)C3=O (stereo partly drawn)
[Q] C=CC(C)(C)c1c(O)cc(O)c2c1O[C@]13[C@H](C2=O)[C@@H](OCC)[C@@H]2C[C@H]1C(C)(C)OC3(CC=C(C)C)C2=O
[R] CC(C)=CCC12OC(C)(C)C3CC4(Oc5c(c(O)cc6c5C(C)(C)[C@H](C)O6)C(=O)C4=CC31)C2=O (stereo partly drawn)
Arrange the 3 entries by GI50 so the values rise. # respond with the labels, arranged in the requested order R, Q, P
(R: 900 nM, Q: 4500 nM, P: 6500 nM)
